Values were extracted from patent US6875761B2.

Subject Of Test: α1 adrenalin receptor
Protocol Details: Binding test on [3H] prazosin, cerebral cortex receptor fraction
Condition Label: rat cerebral cortex receptor fraction, about 0.2 nM [3H] prazosin, room temperature 60 min; read-out: α 1
Counter-ions that a name gives are not always drawn.

{"Molecule": "CCN1CCN(c2nc(-c3ccc(OCCCO)cc3)cc3ccccc23)CC1.Cl.Cl [Example 331, dihydrochloride]", "Subject Of Test": "α1 adrenalin receptor", "Unit Spec": "nM", "Ki": 722}
{"Molecule": "CCCC(O)c1ccc(-c2cc3ccccc3c(N3CCN(CC)CC3)n2)cc1 (centres unmarked) [Example 21, oxalate]", "Subject Of Test": "α1 adrenalin receptor", "Unit Spec": "nM", "Ki": 636}
{"Molecule": "CCN1CCN(c2nc(-c3ccc(CCCOC)nc3)cc3ccccc23)CC1 [Example 139, Oxalate]", "Subject Of Test": "α1 adrenalin receptor", "Unit Spec": "nM", "Ki": 374}
{"Molecule": "CCN1CCN(c2nc(-c3ccc(OCCF)cc3)cc3ccccc23)CC1 [Example 45, Dihydrochloride]", "Subject Of Test": "α1 adrenalin receptor", "Unit Spec": "nM", "Ki": 1220}
{"Molecule": "CCN1CCN(c2nc(-c3ccc(CCC(C)(C)O)c(F)c3)cc3ccccc23)CC1 [Example 416]", "Subject Of Test": "α1 adrenalin receptor", "Unit Spec": "nM", "Ki": 174}

---

Measured melting point, listed per entry.
Where a name gives a salt, the structure may show the parent alone.

{"Molecule": "CCN1CCN(c2nc(-c3ccc(C(C)O)cc3)cc3ccccc23)CC1 (stereo not shown) (as salt: hydrochloride) [Example 348, dihydrochloride]", "melting point": "135.5 to 136 °C"}
{"Molecule": "CCN1CCN(c2nc(/C=C/c3ccc(S(C)(=O)=O)cc3)cc3ccccc23)CC1 (as salt: hydrochloride)", "melting point": "170 to 174 °C"}
{"Molecule": "CCN1CCN(c2nc(-c3ccc(OC4CCCCC4O)cc3)cc3ccccc23)CC1 (stereo not shown) (as salt: hydrochloride)", "melting point": "143 to 144 °C"}
{"Molecule": "CCN1CCN(c2nc(/C=C(\\C)c3cccc(N4CCOCC4)c3)cc3ccccc23)CC1 (as salt: oxalate)", "melting point": "190 to 192 °C"}
{"Molecule": "CCN1CCN(c2nc(-c3ccc(C(=O)NCCO)cc3)cc3ccccc23)CC1 (as salt: hydrochloride) [Example 346, dihydrochloride]", "melting point": "154 to 155 °C"}
{"Molecule": "COc1ccc(-c2cc3ccccc3c(N3CCN(C)CC3)n2)cc1 (as salt: hydrochloride)", "melting point": "134 to 136 °C"}
{"Molecule": "CCN1CCN(c2nc(-c3ccc(CCCO)cc3)cc3cccnc23)CC1 (as salt: hydrochloride) [Example 247, Dihydrochloride]", "melting point": "119 to 122 °C"}
{"Molecule": "CCN1CCN(c2nc(-c3ccc(NS(=O)(=O)CC)cc3)cc3ccccc23)CC1 (as salt: hydrochloride)", "melting point": "198 to 201 °C"}
{"Molecule": "CCN1CCN(c2nc(-c3ccc(CCCO)c(C#N)c3)cc3ccsc23)CC1 (as salt: oxalate)", "melting point": "132 to 134 °C"}
{"Molecule": "CCN1CCN(c2nc(-c3ccc(C4=CCOCC4)s3)cc3ccccc23)CC1 (as salt: hydrochloride)", "melting point": "256 to 258 °C"}
